Target or system: Human LDHA (Homo sapiens (Human), UniProt P00338)
Assay: human LDHA primary biochemical assay (resazurin/diaphorase coupled, fluorescence)
Cond: read-out: Inhibitory activity IC50
pIC50: −log10 of the molar value.
Observed property: pIC50

[[record]]
molecule = "O=C(O)c1csc(-n2nc(-c3ccccc3)cc2C(F)(F)F)n1"
observed_result = "4.24 to 6.00"

[[record]]
molecule = "O=C(O)c1csc(-n2nc(-c3ccccc3)cc2O)n1"
observed_result = "< 4.24"

[[record]]
molecule = "NS(=O)(=O)c1ccc(Oc2c(-c3ccccc3)nn(-c3nc(C(=O)O)cs3)c2C2CCCCC2)cc1"
observed_result = "4.24 to 6.00"


Query: For the compound shown here, NS(=O)(=O)c1ccc(Cc2c(-c3ccccc3)nn(-c3nc(C(=O)O)cs3)c2Cc2nnn[nH]2)cc1 , give the reported pIC50.
Result: 4.24 to 6.00

The values you see were collected from patent US10961200B2.
